system: Escherichia coli K-12 BW25113; test: relative growth (OD600 normalised to plate interquartile mean) (fraction); higher = less growth inhibition, active = 0.2 or less; details: 50 µM; LB; incubation time: overnight (16-24 h)
The campaign covered roughly 39,000 compounds. About 220 (0.56%) showed activity. The sample as a whole holds a higher share of actives than the screen did.
API: response.call in class 1 for active, class 0 for inactive

Field: example entries. Status: answers known.
compound="O=C1C=C2C(=CCOC2O)O1 (stereo not drawn)" classification="class 1"
compound=CCn1nc(-c2cccnc2)nc2c(=O)n(C)c(=O)nc1-2 classification="class 0"
compound=O=C1C=C2C(=CCO[C@@H]2O)O1 classification="class 0"

-- ask Record request — test call for CCC(=O)CCCCC[C@@H]1NC(=O)[C@H]2CCCCN2C(=O)[C@H]([C@H](C)CC)NC(=O)[C@H](Cc2cn(OC)c3ccccc23)NC1=O
-- reply class 0

---

test system: Escherichia coli K-12 BW25113; assay: relative growth (OD600 normalised to plate interquartile mean) (fraction); higher = less growth inhibition, active = 0.2 or less; details: 50 µM; LB; incubation time: overnight (16-24 h);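 note: Wild-type cells incubated without shaking, value is the mean of two biological replicates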
Screen size: about 39,000 compounds; about 220 (0.56%) showed activity. Only a selection was taken, and actives are over-represented in it overall.
measuredQuantity: relative growth
I'd appreciate a reply containing only the number, no unit.

Worked cases, answers included:
compound=NCCc1cccc2ccccc12 measuredquantity="relative growth" recordednumber=1
compound="COP(=O)(OC)C(O)C(Cl)(Cl)Cl (configuration not stated)" measuredquantity="relative growth" recordednumber=0.874
compound=C[C@@H]1O[C@@H](O[C@@H]2C[C@@H](O)[C@]3(CO)[C@H]4[C@H](O)C[C@]5(C)[C@@H](C6=CC(=O)OC6)CC[C@]5(O)[C@@H]4CC[C@]3(O)C2)[C@H](O)[C@H](O)[C@H]1O measuredquantity="relative growth" recordednumber=0.995
compound="CC12CCC3C(CCC4(O)CC(O)CCC34C=O)C1(O)CCC2C1=CC(=O)OC1 (configuration not stated)" measuredquantity="relative growth" recordednumber=0.972
compound="CC(=O)OC1CC(OC2C(O)CC(OC3C(O)CC(OC4CCC5(C)C(CCC6C5CC(O)C5(C)C(C7=CC(=O)OC7)CCC65O)C4)OC3C)OC2C)OC(C)C1OC1OC(CO)C(O)C(O)C1O (configuration not stated)" measuredquantity="relative growth" recordednumber=0.995
compound=NC(=O)c1cn([C@H]2O[C@@H](CO)[C@H](O)[C@@H]2O)c2ncnc(N)c12 measuredquantity="relative growth" recordednumber=0.892
compound="CC1=C(O)C(=O)C=C2C1=CC=C1C2(C)CCC2(C)C3CC(C)(C(=O)O)CCC3(C)CCC12C (configuration not stated)" measuredquantity="relative growth" recordednumber=1.02
compound=C[CH2][Hg][S]c1ccccc1C(=O)[O-].[Na+] measuredquantity="relative growth" recordednumber=0.0484

-- ask Sample C[N+](C)(C)CCCCCCCCCC[N+](C)(C)C.[Br-].[Br-] — what was its relative growth?
-- reply 1.05

-- ask What would you report for O=C([O-])Cc1ccccc1.[Na+] ?
-- reply 0.934

-- ask What would you report for COC(=O)[C@]1(Cc2ccccc2N=[N+]=[N-])N=C(c2ccc(OCCCO)cc2)O[C@@H]1c1ccccc1N=[N+]=[N-] ?
-- reply 1.03

-- ask What would you report for COc1cccc2c1C(=O)c1c(O)c3c(c(O)c1C2=O)C[C@@](O)(C(=O)CO)C[C@@H]3O[C@H]1C[C@H](N2CCO[C@H](OC)C2)[C@H](O)[C@H](C)O1 ?
-- reply 0.933

-- ask What would you report for C[N+](C)(C)CCCl ?
-- reply 1
